# experimental.target: Ephrin type-A receptor 3 (Homo sapiens)
# condition.description: at 10 µM
Mark each entry fulfilled if its residual activity sits below 80%, and not fulfilled for all others.

Is residual activity of CCCC(=O)Oc1ccc2[nH]c(C(=O)c3cc4ccccc4[nH]3)cc2c1 strictly below 80%?
not fulfilled

State whether 80% exceeds residual activity recorded for O=C(CCCc1ccc(-c2ccccc2F)cc1)Nc1ccc(O)cc1 .
not fulfilled

In the record for CN(C)S(=O)(=O)c1ccc2c(c1)/C(=C/c1cc3c([nH]1)CCCC3)C(=O)N2 , is residual activity less than 80%?
fulfilled

***
Threshold test, residual activity < 80%: CC(C)N(CCC(=O)c1ccc2ccccc2c1)Cc1ccccc1
not fulfilled

Regarding CCCCc1c(-c2ccc(OC)cc2)[nH]c2nccnc12 , kindly confirm whether its residual activity is beneath 80%.
fulfilled

is_below(residual activity, 80%) for c1ccc(-c2cnc(Nc3ccc(OCCN4CCCC4)cc3)s2)cc1 ?
fulfilled

Hello, I'm reviewing records and need to know if residual activity of CC(C)(C)c1nc2c3ccc(F)cc3c3c(=O)[nH]ccc3c2[nH]1 is below 80%. Could you check?
fulfilled

Say whether its residual activity is strictly beneath 80%. Entry: NC(=O)c1ccc(-c2nc(-c3ccc4c(c3)OCCO4)c(-c3ccccn3)[nH]2)cc1
not fulfilled

API: query returns whether the compound falls strictly under 80% in residual activity. Query: Nc1ncnc2c1cnn2-c1ccccc1
not fulfilled

* * *

# experimental.target: Myosin light chain kinase, smooth muscle (Homo sapiens)
# condition.description: at 1 µM
quantity.kind: residual activity (%)
Please reply with the bare figure in % and do not write the unit itself.

Below: 5 compounds and their reported residual activity.
Please look up its residual activity: CCCC(=O)Oc1ccc2[nH]c(C(=O)c3cc4ccccc4[nH]3)cc2c1
90

Reported residual activity for Cn1sc(=O)n(Cc2ccccc2)c1=O : what is it?
90

For the compound shown here, Oc1cccc(-c2nc(N3CCOCC3)c3oc4ncccc4c3n2)c1 , give the reported residual activity.
71

# get_value(readout='residual activity', item= O=c1cc(N2CCNCC2)oc2c(-c3ccccc3)cccc12 )
93

Any idea what its residual activity is? The compound is O=C(O)/C=C/c1cc(Br)c(Br)c(Br)c1Br
94

New cases:
For the compound shown here, CC(C)(C)c1nc2c3ccc(F)cc3c3c(=O)[nH]ccc3c2[nH]1 , give the reported residual activity.
2

Param item = COc1ccc2c(c1)c(C1=C(c3c[nH]c4ccccc34)C(=O)NC1=O)cn2CCCN(C)C ; retrieve measured residual activity.
51

Bench note: what residual activity did NC(=O)Nc1sc(-c2ccc(F)cc2)cc1C(N)=O show?
92

* * *

# experimental.target: Cyclin-dependent kinase 2/cyclin A (Homo sapiens) (UniProt P24941+P20248+P78396)
# condition.description: at 10 µM
quantity.kind: residual activity (%)
Value expressed in %; do not type the unit.

// residual activity lookup, key: O=C1NC(=O)C(c2c[nH]c3ccccc23)=C1c1c[nH]c2ccccc12
19

Entry O=C1Nc2ccccc2/C1=C\c1c(Cl)[nH]c2ccccc12 has what residual activity?
57

Consider the compound shown here: CCN(CC)CCNC(=O)c1c(C)[nH]c(/C=C2\C(=O)Nc3ccc(Cl)cc32)c1C What is its recorded residual activity?
69

What value of measured residual activity is listed for NC(=O)c1ccc(-c2nc(-c3ccc4c(c3)OCCO4)c(-c3ccccn3)[nH]2)cc1 ?
85

Would you kindly share the measured residual activity for COc1ccc2c(c1)c(C1=C(c3c[nH]c4ccccc34)C(=O)NC1=O)cn2CCCN(C)C ?
70

Look up residual activity for this compound: Nc1nc(Nc2ccc(S(N)(=O)=O)cc2)nn1C(=O)c1c(F)cccc1F
1

Suppose we examine the compound Nc1nccc(-c2c(-c3ccc(F)cc3)ncn2C2CCNCC2)n1 ; what residual activity value has been reported?
77

Looking for the measured residual activity of O=C1NC(=O)C(c2cn(CCCn3ccnc3)c3ccccc23)=C1Nc1ccccc1 , can you help?
21

I have this compound here, O=c1cc(N2CCOCC2)oc2c1ccc1ccccc12 , and I need its recorded residual activity.
87

// query residual activity value for entry CN(C)S(=O)(=O)c1ccc2c(c1)/C(=C/c1cc3c([nH]1)CCCC3)C(=O)N2
77

Hey, just so you know, these numbers are from ChEMBL document CHEMBL2218924.
